// provenance: paper PMC8544881

target_of_assay: ZBTB25 (Homo sapiens, UniProt P24278)
Construct: recombinant ZBTB25 protein
Sequence (P24278 whole entry): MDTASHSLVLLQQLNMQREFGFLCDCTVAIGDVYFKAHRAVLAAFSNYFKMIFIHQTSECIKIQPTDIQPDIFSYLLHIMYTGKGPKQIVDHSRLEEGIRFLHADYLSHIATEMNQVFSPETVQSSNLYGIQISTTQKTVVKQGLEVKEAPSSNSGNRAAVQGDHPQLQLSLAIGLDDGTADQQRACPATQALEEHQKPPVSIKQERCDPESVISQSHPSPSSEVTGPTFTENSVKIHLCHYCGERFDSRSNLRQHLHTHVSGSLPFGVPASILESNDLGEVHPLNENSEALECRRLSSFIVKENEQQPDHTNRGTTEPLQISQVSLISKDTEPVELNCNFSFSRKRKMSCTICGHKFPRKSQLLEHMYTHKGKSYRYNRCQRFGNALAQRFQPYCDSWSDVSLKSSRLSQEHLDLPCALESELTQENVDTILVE
assay: zinc ejection assay with FluoZin-3 fluorescence
reported_property: IC50 (µM)
Report only the number, with the unit µM understood.

Entry `CCN(CC)C(=S)SSC(=S)N(CC)CC` under ZBTB25 (Homo sapiens, UniProt P24278) had IC50 of 10.3
